B1: Azoarcus group I ribozyme (parent)
chain: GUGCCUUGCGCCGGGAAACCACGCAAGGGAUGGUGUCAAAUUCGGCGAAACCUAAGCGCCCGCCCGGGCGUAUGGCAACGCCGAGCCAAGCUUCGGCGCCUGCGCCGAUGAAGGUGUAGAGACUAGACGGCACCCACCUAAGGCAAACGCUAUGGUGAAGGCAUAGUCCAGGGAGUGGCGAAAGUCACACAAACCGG

- Variants of: B1
- assay-procedure: reverse-splicing fitness (ratio to wild type); higher = more active; in vitro selection; Mg2+ level not given
The entries below come with measured reverse-splicing fitness values attached.
assay-readout: reverse-splicing fitness

>>> number("C82A A111C A120C A145G C150U C169A U176A")
0.0159
>>> number("C82A A120U C150A U176G")
0.00257
>>> number("C82G A111C A120G A145G C150U U176C")
0.0183
>>> number("C82A A111G A120C C169A U176G")
0.00575
>>> number("A111U A145U C150A U176A")
0.192
>>> number("A111C A120G C169U U176G")
0.00657
>>> number("C82A A111G A120G A145U C150A C169A U176A")
0.0161
>>> number("C82U A111G A120C C150A C169G")
0.0102
>>> number("C82G A111C A120G A145G U176C")
0.0204
>>> number("C82G A111C A145G C169U U176G")
0.00729
>>> number("C82G A111U A145C C169A")
0.00732
>>> number("C82U A111U A120G A145G C150A C169G U176G")
0.00481
>>> number("C82A A111G A120U A145U C150G C169G U176C")
0.00281
>>> number("A111G A120C A145U C150A U176C")
0.0741
>>> number("C82U A120C A145U C150U C169A U176C")
0.00582
>>> number("C82A A111C A120C C150U C169U U176C")
0.0139
>>> number("C82G A120C A145G C150U C169A U176A")
0.0194
>>> number("C82U A111U A120G C150U C169A")
0.0102
>>> number("C82U A111G A120U C150U C169A U176G")
0.00203
>>> number("C82G A111G A120G C169U U176A")
0.0199
>>> number("C82U A111C A120U A145C C169G U176G")
0.00186
>>> number("C82A A111C A145C C150G C169A U176A")
0.00837
>>> number("C82U A111C A145U C150U C169G U176G")
0.00709
>>> number("C82U A111C A120U A145C C150U C169A U176G")
0.00235
>>> number("A111C A120U A145G C169U U176C")
0.0232
>>> number("C82A A120G A145G C150U C169U")
0.016
>>> number("C82A A111G A120U A145C C169U U176C")
0.00282
>>> number("C82U A111G A145C C150G U176G")
0.00329
>>> number("C82A A111G A120G A145U C169G U176G")
0.00452
>>> number("A145G C169U")
0.369
>>> number("C82U A111U A120U A145C C150U C169G U176A")
0.00283
>>> number("A111C A145U C169A U176A")
0.0141
>>> number("C82G A111U A145U C150A C169A")
0.0096
>>> number("C82U A111G A120G A145C C150U C169U")
0.00745
>>> number("C82A A111G C150U C169G")
0.00992
>>> number("A111U A120U C169G U176C")
0.00937
>>> number("C82A A111G A145U C150A C169A U176G")
0.00674
>>> number("C82U A120G A145C C150A C169U U176A")
0.0218
>>> number("C82G A120G A145U C169U U176G")
0.00349
>>> number("C82A A111G A120U A145C C150A C169A U176A")
0.0022
>>> number("A111C A120G A145G C150G C169A U176C")
0.0131
>>> number("C82G A111U A120U A145U C150U")
0.0274
>>> number("A111G A120G A145G C150U C169A U176C")
0.0553
>>> number("A111C A120U A145C C150U C169G U176C")
0.00324
>>> number("C82U A111U A120U A145C C169G")
0.00316
>>> number("C82G A111C A120G C150A C169A U176A")
0.0179
